inhibition for assorted molecules
target: Transient receptor potential cation channel subfamily M member 8 (Homo sapiens, UniProt Q7Z2W7); experiment: Inhibition of human TRPM8 expressed in HEK293T cells assessed as blocked of menthol-activated current at 10 uM by whole cell patch clamp electrophysiology relative to control; type: cell-based
Sequence (Q7Z2W7 whole entry, looked up): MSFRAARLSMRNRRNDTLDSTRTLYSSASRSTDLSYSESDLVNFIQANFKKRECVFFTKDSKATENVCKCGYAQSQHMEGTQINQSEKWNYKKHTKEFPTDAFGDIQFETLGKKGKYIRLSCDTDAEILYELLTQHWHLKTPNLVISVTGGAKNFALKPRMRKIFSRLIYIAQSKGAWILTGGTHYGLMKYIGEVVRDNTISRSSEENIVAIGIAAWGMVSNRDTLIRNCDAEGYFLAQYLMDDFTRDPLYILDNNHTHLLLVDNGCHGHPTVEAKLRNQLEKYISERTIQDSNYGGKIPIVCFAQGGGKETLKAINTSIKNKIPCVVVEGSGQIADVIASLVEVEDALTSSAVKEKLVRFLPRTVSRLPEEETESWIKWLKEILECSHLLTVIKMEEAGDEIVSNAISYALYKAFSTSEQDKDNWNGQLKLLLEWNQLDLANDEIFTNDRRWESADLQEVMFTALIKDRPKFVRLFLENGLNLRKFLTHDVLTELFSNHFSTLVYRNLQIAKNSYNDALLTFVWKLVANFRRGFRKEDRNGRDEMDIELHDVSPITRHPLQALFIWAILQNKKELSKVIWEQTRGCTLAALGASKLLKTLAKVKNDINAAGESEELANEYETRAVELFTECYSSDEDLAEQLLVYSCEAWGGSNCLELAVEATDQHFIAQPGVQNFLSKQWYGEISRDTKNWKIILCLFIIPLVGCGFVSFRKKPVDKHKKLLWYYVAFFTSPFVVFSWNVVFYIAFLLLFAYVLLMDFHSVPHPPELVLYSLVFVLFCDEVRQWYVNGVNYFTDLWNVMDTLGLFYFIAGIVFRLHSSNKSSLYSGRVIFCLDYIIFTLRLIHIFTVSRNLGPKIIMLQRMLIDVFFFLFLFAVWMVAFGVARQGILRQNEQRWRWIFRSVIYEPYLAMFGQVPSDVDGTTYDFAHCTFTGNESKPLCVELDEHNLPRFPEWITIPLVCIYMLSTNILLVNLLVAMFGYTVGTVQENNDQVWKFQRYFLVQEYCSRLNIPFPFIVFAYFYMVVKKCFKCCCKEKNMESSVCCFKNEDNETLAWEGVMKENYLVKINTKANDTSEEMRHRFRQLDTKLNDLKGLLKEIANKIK
Write the quantity with the unit trailing the number.

- O=C(/C=C/c1ccc(-c2ccccc2)cc1)Nc1ccc(Br)cc1C(=O)O: 93.3%
- CCCCCc1ccc(/C=C/C(=O)Nc2ccc(C)cc2C(=O)O)cc1: 85.6%
- CCCCCc1ccc(/C=C/C(=O)Nc2cc(C)ccc2C(=O)O)cc1: 88.1%
- O=C(/C=C/c1ccc(-c2cccc([N+](=O)[O-])c2)cc1)Nc1ccccc1C(=O)O: 14.6%
- O=C(/C=C/c1ccc(-c2cccc(C(F)(F)F)c2)cc1)Nc1ccccc1C(=O)O: 22.6%

Kindly consider the entry below.
Ask | Consider the molecule "CCCCCc1ccc(/C=C/C(=O)Nc2ccccc2C(=O)O)cc1" and give its measured inhibition.
Reply | 62.2%

====

target: Transient receptor potential cation channel subfamily M member 2 (Homo sapiens); experiment: Inhibition of human TRPM2 expressed in HEK293T cells assessed as suppression of H2O2-induced calcium flux at 1 uM measured after 30 mins by Fluo-3/AM assay; assay type: cell-based
Sequence (O94759 whole entry): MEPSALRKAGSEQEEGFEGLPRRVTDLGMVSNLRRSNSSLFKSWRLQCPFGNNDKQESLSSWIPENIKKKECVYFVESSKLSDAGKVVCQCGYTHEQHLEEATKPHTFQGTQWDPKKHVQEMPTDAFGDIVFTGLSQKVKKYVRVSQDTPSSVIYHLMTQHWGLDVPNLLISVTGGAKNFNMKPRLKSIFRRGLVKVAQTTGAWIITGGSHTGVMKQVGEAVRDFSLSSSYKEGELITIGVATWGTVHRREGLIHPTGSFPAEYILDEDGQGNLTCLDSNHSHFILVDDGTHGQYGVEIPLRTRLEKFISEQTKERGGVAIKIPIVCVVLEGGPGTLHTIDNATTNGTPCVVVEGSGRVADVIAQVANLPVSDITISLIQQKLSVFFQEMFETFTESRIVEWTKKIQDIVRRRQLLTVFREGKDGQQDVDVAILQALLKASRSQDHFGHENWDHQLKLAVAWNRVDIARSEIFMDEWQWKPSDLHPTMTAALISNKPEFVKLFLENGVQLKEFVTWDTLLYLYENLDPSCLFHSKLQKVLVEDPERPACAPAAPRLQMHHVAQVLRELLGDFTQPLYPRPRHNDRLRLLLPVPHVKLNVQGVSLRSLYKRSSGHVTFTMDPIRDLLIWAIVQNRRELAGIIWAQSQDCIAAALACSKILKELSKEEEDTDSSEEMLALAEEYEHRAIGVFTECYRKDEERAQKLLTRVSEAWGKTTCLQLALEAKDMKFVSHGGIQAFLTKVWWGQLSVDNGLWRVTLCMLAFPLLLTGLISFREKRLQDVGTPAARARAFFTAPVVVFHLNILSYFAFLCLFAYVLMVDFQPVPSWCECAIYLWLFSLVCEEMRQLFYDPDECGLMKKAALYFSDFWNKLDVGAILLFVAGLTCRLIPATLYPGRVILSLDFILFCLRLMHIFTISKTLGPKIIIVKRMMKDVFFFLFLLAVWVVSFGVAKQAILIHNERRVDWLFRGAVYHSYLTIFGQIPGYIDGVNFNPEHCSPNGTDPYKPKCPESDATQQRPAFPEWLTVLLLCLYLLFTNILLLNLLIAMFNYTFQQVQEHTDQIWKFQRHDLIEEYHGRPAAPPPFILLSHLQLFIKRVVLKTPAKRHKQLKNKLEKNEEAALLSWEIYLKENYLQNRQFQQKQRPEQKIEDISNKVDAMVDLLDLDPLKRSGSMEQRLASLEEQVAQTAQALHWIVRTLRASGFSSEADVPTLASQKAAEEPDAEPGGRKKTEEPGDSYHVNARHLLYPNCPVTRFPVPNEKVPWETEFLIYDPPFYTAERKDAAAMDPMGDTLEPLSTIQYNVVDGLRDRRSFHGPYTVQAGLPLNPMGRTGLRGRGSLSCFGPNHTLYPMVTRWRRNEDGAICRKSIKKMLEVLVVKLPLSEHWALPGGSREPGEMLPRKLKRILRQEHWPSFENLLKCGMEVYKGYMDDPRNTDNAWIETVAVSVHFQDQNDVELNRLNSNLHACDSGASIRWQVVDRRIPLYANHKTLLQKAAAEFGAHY
quantity measured: inhibition

// worked examples, inhibition included
* O=C(/C=C/c1ccc(-c2cccc(Cl)c2)cc1)Nc1ccccc1C(=O)O | > 45%
* CCCCCc1ccc(/C=C/C(=O)Nc2c(C(=O)O)ccc(C)c2C)cc1 | < 45%
* CCCCCc1ccc(/C=C/c2ccccc2C(=O)O)cc1 | < 45%
* O=C(/C=C/c1ccc(-c2ccccc2)cc1)Nc1cc(Cl)ccc1C(=O)O | > 45%
* CCCCCc1ccc(/C=C/C(=O)Nc2c(Cl)cccc2C(=O)O)cc1 | < 45%

Kindly consider the entry below.
Ask | Consider the compound "O=C(/C=C/c1ccccc1)Nc1ccccc1C(=O)O" and give its measured inhibition.
Reply | < 45%

====

experiment: Cmax in C57BL/6 mouse plasma at 10 mg/kg, IG by LC-MS/MS analysis; assay type: ADME, organism-based; set-up: route […], dose 10 mg/kg; conditions: po
quantity measured: Cmax (µg/mL)
Numeric only. Scale: µg/mL

Ask | Consider the compound "O=C(/C=C/c1ccc(-c2cccc(C(F)(F)F)c2)cc1)Nc1ccccc1C(=O)O" and give its measured Cmax.
Reply | 58.4

====

assay: Half life in C57BL/6 mouse plasma at 10 mg/kg, IG by LC-MS/MS analysis; assay type: ADME, organism-based; settings: po
quantity measured: half-life (h)
Numeric only. Scale: h

Ask | Consider the compound "O=C(/C=C/c1ccc(-c2cccc(C(F)(F)F)c2)cc1)Nc1ccccc1C(=O)O" and give its measured half-life.
Reply | 1.42

====

assay: AUC (0 to t) in C57BL/6 mouse plasma at 10 mg/kg, IG by LC-MS/MS analysis; assay type: ADME, organism-based; design: dose 10 mg/kg; settings: po
quantity measured: AUC(0-t)
Write the quantity with the unit trailing the number.

Ask | Consider the compound "O=C(/C=C/c1ccc(-c2cccc(C(F)(F)F)c2)cc1)Nc1ccccc1C(=O)O" and give its measured AUC(0-t).
Reply | 157 µg·h/mL

====

test: Clearance in C57BL/6 mouse plasma at 10 mg/kg, IG by LC-MS/MS analysis; format: ADME, organism-based; settings: po
quantity measured: CL/F (mL/min/kg)
Numeric only. Scale: mL/min/kg

Ask | Consider the molecule "O=C(/C=C/c1ccc(-c2cccc(C(F)(F)F)c2)cc1)Nc1ccccc1C(=O)O" and give its measured CL/F.
Reply | 1.04

====

experiment: Cmax in C57BL/6 mouse plasma at 100 mg/kg, IG by LC-MS/MS analysis; assay type: ADME, organism-based; set-up: route […], dose 100 mg/kg; conditions: po
quantity measured: Cmax (µg/mL)
Numeric only. Scale: µg/mL

Ask | Consider the compound "O=C(/C=C/c1ccc(-c2cccc(C(F)(F)F)c2)cc1)Nc1ccccc1C(=O)O" and give its measured Cmax.
Reply | 168

====

molecular target: Phospholipase A2 (Homo sapiens); experiment: Inhibition of PLA2 (unknown origin) using soybean phosphatidylcholine as substrate at 10 uM preincubated for 30 mins followed incubated for 60 mins after substrate addition by microplate reader relative to control
Sequence (P04054 23-148 limits assumed): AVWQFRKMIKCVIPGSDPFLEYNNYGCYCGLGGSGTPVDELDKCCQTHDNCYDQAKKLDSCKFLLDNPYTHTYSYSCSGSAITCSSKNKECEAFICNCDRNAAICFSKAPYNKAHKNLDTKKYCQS
Active and inactive are the calls of the source. The rule behind the calls is not given here.
quantity measured: inhibition

- CCCCCc1ccc(/C=C/C(=O)Nc2cc(C)ccc2C(=O)O)cc1: inactive
- O=C(/C=C/c1ccc(-c2cccc(C(F)(F)F)c2)cc1)Nc1ccccc1C(=O)O: 14.8%
- O=C(/C=C/c1ccc(-c2cccc([N+](=O)[O-])c2)cc1)Nc1ccccc1C(=O)O: 24.6%
- O=C(/C=C/c1ccc(-c2ccccc2)cc1)Nc1ccc(Br)cc1C(=O)O: inactive
- CCCCCc1ccc(/C=C/C(=O)Nc2ccc(C)cc2C(=O)O)cc1: inactive

Ask | Consider the compound "CCCCCc1ccc(/C=C/C(=O)Nc2ccccc2C(=O)O)cc1" and give its measured inhibition.
Reply | 40.4%

====

assay: Tmax in C57BL/6 mouse plasma at 0.3 mg/kg, iv by LC-MS/MS analysis; assay type: ADME, organism-based
quantity measured: Tmax (min)
Numeric only. Scale: min

Ask | Consider the compound "O=C(/C=C/c1ccc(-c2cccc(C(F)(F)F)c2)cc1)Nc1ccccc1C(=O)O" and give its measured Tmax.
Reply | 4.8

====

experiment: MRT in C57BL/6 mouse plasma at 0.3 mg/kg, iv by LC-MS/MS analysis; format: ADME, organism-based
quantity measured: MRT (h)
Numeric only. Scale: h

Ask | Consider the molecule "O=C(/C=C/c1ccc(-c2cccc(C(F)(F)F)c2)cc1)Nc1ccccc1C(=O)O" and give its measured MRT.
Reply | 1.19

====

experiment: AUC (0 to infinitive) in C57BL/6 mouse plasma at 3 mg/kg, iv by LC-MS/MS analysis; type: ADME, organism-based; set-up: time infinity, route intravenous, dose 3 mg/kg
quantity measured: AUC(0-inf) (ng·h/mL)
Numeric only. Scale: ng·h/mL

Ask | Consider the molecule "O=C(/C=C/c1ccc(-c2cccc(C(F)(F)F)c2)cc1)Nc1ccccc1C(=O)O" and give its measured AUC(0-inf).
Reply | 40900

====

biological target: Transient receptor potential cation channel subfamily M member 2 (Homo sapiens); assay: Inhibition of human TRPM2 expressed in HEK293T cells assessed as suppression of H2O2-induced calcium flux at 1 uM measured after 30 mins by Fluo-3/AM assay; format: cell-based
quantity measured: inhibition

• O=C(/C=C/c1ccc(-c2ccccc2C(F)(F)F)cc1)Nc1ccccc1C(=O)O = > 45%

Ask | Consider the molecule "COc1cccc(-c2ccc(/C=C/C(=O)Nc3ccccc3C(=O)O)cc2)c1" and give its measured inhibition.
Reply | > 45%

Ask | Consider the molecule "O=C1CCN(C(=O)/C=C/c2ccc(-c3ccccc3)cc2)c2ccccc21" and give its measured inhibition.
Reply | < 45%

Ask | Consider the molecule "O=C(/C=C/c1ccc(-c2ccccc2)cc1)Nc1ccc(Br)cc1C(=O)O" and give its measured inhibition.
Reply | > 45%

Ask | Consider the molecule "O=C(/C=C/c1ccc(-c2cccc(Br)c2)cc1)Nc1ccccc1C(=O)O" and give its measured inhibition.
Reply | > 45%

Ask | Consider the molecule "CCCCCc1ccc(/C=C/C(=O)Nc2ccc(Br)cc2C(=O)O)cc1" and give its measured inhibition.
Reply | > 45%

Ask | Consider the molecule "Cc1ccc(/C=C/C(=O)Nc2ccccc2C(=O)O)cc1" and give its measured inhibition.
Reply | < 45%

Ask | Consider the molecule "COc1ccc(-c2ccc(/C=C/C(=O)Nc3ccccc3C(=O)O)cc2)cc1" and give its measured inhibition.
Reply | > 45%

Ask | Consider the molecule "CCCCCc1ccc(/C=C/C(=O)Nc2cc(Cl)ccc2C(=O)O)cc1" and give its measured inhibition.
Reply | > 45%

Ask | Consider the molecule "O=C(/C=C/c1ccc(-c2ccccc2)cc1)N1C(=O)c2ccccc21" and give its measured inhibition.
Reply | < 45%

Ask | Consider the molecule "Cc1cc(/C=C/C(=O)Nc2ccccc2C(=O)O)ccc1-c1ccccc1" and give its measured inhibition.
Reply | > 45%

Ask | Consider the molecule "O=C(/C=C/c1ccc(-c2ccccc2)cc1)Nc1ccc(Cl)cc1C(=O)O" and give its measured inhibition.
Reply | > 45%

====

inhibition for assorted compounds
target: UniProt:O94759; experiment: Inhibition of human TRPM2 expressed in HEK293T cells assessed as suppression of H2O2-induced calcium flux at 1 uM measured after 30 mins by Fluo-3/AM assay; type: cell-based

// worked examples, inhibition included
- CC(C)(C)c1ccc(/C=C/C(=O)Nc2ccccc2C(=O)O)cc1: < 45%
- CCc1ccc(-c2ccc(/C=C/C(=O)Nc3ccccc3C(=O)O)cc2)cc1: > 45%
- CCCCCc1ccc(/C=C/C(=O)N2CCCC(=O)c3ccccc32)cc1: < 45%
- O=C(/C=C/c1ccc(-c2cccc(F)c2)cc1)Nc1ccccc1C(=O)O: > 45%
- CC(C)c1ccc(/C=C/C(=O)Nc2ccccc2C(=O)O)cc1: < 45%

Ask | Consider the compound "CC(C)c1ccc(-c2ccc(/C=C/C(=O)Nc3ccccc3C(=O)O)cc2)cc1" and give its measured inhibition.
Reply | > 45%

Ask | Consider the compound "O=C1CCCN(C(=O)/C=C/c2ccc(-c3ccccc3)cc2)c2ccccc21" and give its measured inhibition.
Reply | < 45%

Ask | Consider the compound "CCCCCc1ccc(/C=C/C(=O)Nc2cc(C)ccc2C(=O)O)cc1" and give its measured inhibition.
Reply | > 45%

Ask | Consider the compound "O=C(/C=C/c1ccc(-c2ccc(F)cc2)cc1)Nc1ccccc1C(=O)O" and give its measured inhibition.
Reply | < 45%

Ask | Consider the compound "CCCCCc1ccc(/C=C/C(=O)Nc2ccccc2C(=O)O)cc1" and give its measured inhibition.
Reply | > 45%
